target_entity: recombinant human PAI-1 (Homo sapiens, UniProt P05121)
Construct: purchased Molecular Innovations, Inc
Sequence (P05121 24-402): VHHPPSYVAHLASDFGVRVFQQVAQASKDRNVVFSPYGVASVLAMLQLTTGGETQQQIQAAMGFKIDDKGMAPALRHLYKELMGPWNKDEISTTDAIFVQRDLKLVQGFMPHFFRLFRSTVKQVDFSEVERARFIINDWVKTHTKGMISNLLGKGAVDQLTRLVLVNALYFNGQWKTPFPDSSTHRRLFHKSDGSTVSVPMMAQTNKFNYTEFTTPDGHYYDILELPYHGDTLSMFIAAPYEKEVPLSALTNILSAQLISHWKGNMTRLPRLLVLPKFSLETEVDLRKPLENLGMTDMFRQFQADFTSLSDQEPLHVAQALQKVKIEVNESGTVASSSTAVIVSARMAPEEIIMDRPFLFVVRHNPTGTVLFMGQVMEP
protocol_text: Test Example 2: human PAI-1 inhibitory activity (tPA fluorogenic substrate, pH 7.4 HEPES buffer)
Format: biochemical
condition: human PAI-1; calculated from the inhibition rates
parameter_measured: IC50 (µM)
Numeric only. Scale: µM

// below: answered molecules
CCCCC(Oc1cc(Oc2ccc(OC(F)(F)F)cc2)ccc1Oc1ccc(C(C)(C)C)cc1)C(=O)O (centres unmarked) = 0.53
CC(C)(C)c1ccc(Oc2cccc(-c3ccc(OC(F)(F)F)cc3)c2OCC(=O)O)cc1 = 1.75
CCCCCOc1ccc(-c2ccc(OC(F)(F)F)cc2)cc1N(CCCOc1ccccc1)C(=O)C(=O)O = 0.93
CCCCC(Oc1cc(-c2ccc(OC(F)(F)F)cc2)ccc1Oc1ccc(C(C)(C)C)cc1)C(=O)O (centres unmarked) = 0.54
CC(C)(C)c1ccc(Oc2ccc(-c3cccc(OC(F)(F)F)c3)cc2OCC(=O)O)cc1 = 1.72

Incoming: Please tell me the measured IC50 for CC(C)(C)c1ccc(COc2c(OCC(=O)O)cccc2-c2ccc(OC(F)(F)F)cc2)cc1 ; system: recombinant human PAI-1 (Homo sapiens, UniProt P05121).
Outgoing: 1.04

Incoming: Please tell me the measured IC50 for CCCCC(Oc1ccc(-c2ccc(OC(F)(F)F)cc2)cc1OCCCCc1ccccc1)C(=O)O (centres unmarked) ; system: recombinant human PAI-1 (Homo sapiens, UniProt P05121).
Outgoing: 0.58

Incoming: Please tell me the measured IC50 for CC(C)(C)c1ccc(Oc2cc(-c3cccc(C(F)(F)F)c3)ccc2CCC(=O)O)cc1 ; system: recombinant human PAI-1 (Homo sapiens, UniProt P05121).
Outgoing: 1.47

###

target_entity: recombinant human PAI-1 (Homo sapiens, UniProt P05121)
Construct: purchased Molecular Innovations, Inc
protocol_text: Test Example 2: human PAI-1 inhibitory activity (tPA fluorogenic substrate, pH 7.4 HEPES buffer)
Format: biochemical
condition: human PAI-1; compound concentration 3 μM
parameter_measured: Inhibition Rate of PAI-1 Activity (%)
Numeric only. Scale: %

// below: answered compounds
CC(Oc1cc(-c2ccc(OC(F)(F)F)cc2)ccc1/C=C/C(=O)O)c1ccccc1 (stereo not shown) = 80
CC(C)(C)c1ccc(Sc2cc(-c3ccc(OC(F)(F)F)cc3)ccc2/C=C/C(=O)O)cc1 = 95

Incoming: Given the compound Cc1cc(C)cc(Oc2cc(-c3ccc(C(C)(C)C)cc3)ccc2/C=C/C(=O)O)c1 , write its reported Inhibition Rate of PAI-1 Activity (%).
Outgoing: 92

Incoming: Given the compound CCCCc1ccc(Oc2cc(-c3ccc(OC(F)(F)F)cc3)ccc2CCC(=O)O)cc1 , write its reported Inhibition Rate of PAI-1 Activity (%).
Outgoing: 98

Incoming: Given the compound CC(C)c1ccc(-c2ccc(OCC(=O)O)c(Oc3ccc(C(C)(C)C)cc3)c2)cc1 , write its reported Inhibition Rate of PAI-1 Activity (%).
Outgoing: 98

Incoming: Given the compound COc1ccc(-c2ccc(OCC(=O)O)c(Oc3ccc(C(C)(C)C)cc3)c2)cc1 , write its reported Inhibition Rate of PAI-1 Activity (%).
Outgoing: 50

Incoming: Given the compound CC(C)(C)c1ccc(Oc2cc(-c3ccc(F)cc3)ccc2OCC(=O)O)cc1 , write its reported Inhibition Rate of PAI-1 Activity (%).
Outgoing: 86

Incoming: Given the compound CC(C)(C)c1ccc(Oc2cc(Nc3ccc(OC(F)(F)F)cc3)ccc2/C=C/C(=O)O)cc1 , write its reported Inhibition Rate of PAI-1 Activity (%).
Outgoing: 96

Just for reference, patent US8633245B2 is where these values come from.
